meta.source: paper PMC9352680

Biological target: T1, PUF4 RNA-binding domain (Saccharomyces cerevisiae, UniProt P25339 537-888)
T1 sequence: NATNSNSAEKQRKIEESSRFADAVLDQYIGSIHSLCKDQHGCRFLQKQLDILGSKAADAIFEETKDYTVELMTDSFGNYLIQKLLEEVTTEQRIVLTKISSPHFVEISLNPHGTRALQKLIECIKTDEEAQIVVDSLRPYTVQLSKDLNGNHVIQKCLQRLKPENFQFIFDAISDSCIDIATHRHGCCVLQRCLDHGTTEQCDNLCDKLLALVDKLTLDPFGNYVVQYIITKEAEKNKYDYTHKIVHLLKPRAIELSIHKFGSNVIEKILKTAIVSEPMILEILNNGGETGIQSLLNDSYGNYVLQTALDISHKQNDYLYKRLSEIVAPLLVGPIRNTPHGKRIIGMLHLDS
Assay: Mg; RNA-MaP; 20 mM Na-HEPES pH 7.4, 30 mM KOAc, 0.75 mM MgCl2, 0.1% Tween-20, 5% glycerol, 0.1 mg/mL BSA, 2 mM DTT; 25 C; 0.0125-409.6 nM protein
Details: tags: N-His6-TEV cleaved; C-SNAP kept, Cy3B-labelled; label: tethered on chip by stalled RNA polymerase
Below, each entry is listed alongside its reported Kd.

binder | qualifier symbol | Kd, µM
Id_iii_S2_P3E.5_K3.1_C3.3_[T-1A]_H3.1_A3.1_F3.1_T3.2 (ssRNA) RNA: UUUGAUUAAUAUGAUAUCGUUCUUUCUUCAUGUAUAUAUAUUCUUUCUCGAUAUCAUAUUAAUCUUU | = | 0.0017
UCUCUUUGUAACUGUCUCUU (ssRNA) [Ic_S1_P3E.1_K3.1_C3.1_H3.1_A3.1_[T5A]_[A6C]_F3.1_[A8G]_T3.1] | = | 0.389
Ic_S2_P4E.1_K4.1_C4.1_H4.1_A4.1_[T7C]_F4.1_[T8C]_[A9T]_T4.1 (ssRNA) RNA: UUUGAUUAAUAUGAUAUCGUUCUUUCUUGUAUACCUUUCUUUCUCGAUAUCAUAUUAAUCUUU | = | 0.0158
UCUCUUUAUAUAUAAUCUCUU (ssRNA) [Ib_S1_P4E.1_K4.1_C4.1_H4.1_[G2A]_A4.1_F4.1_[T8A]_T4.1] | = | 0.532
Ic_S4_P3E.1_K3.1_C3.1_H3.1_A3.1_[T5A]_[A6C]_F3.1_[A8T]_T3.1 (ssRNA) RNA: UUUGACAACUGAUCGUUCUUUCUUGUAACUUUUCUUUCUCGAUCAGUUGUCUUU | = | 0.0216
UCUCUUUGUAUGUACUCUCUU (ssRNA) [Ic_S1_P4E.1_K4.1_C4.1_H4.1_A4.1_[A6G]_F4.1_[T8A]_[A9C]_T4.1] | = | 0.0415
UCUCUUCAUAUAUUAUUACCUCUCUU (ssRNA) [Id_ii_S1_P5E.3_K5.2_C5.2_[T-1A]_H5.2_A5.1_F5.1_T5.2_[T11C]_[A12C]] | = | 0.278
Ic_S4_P4E.1_K4.1_C4.1_H4.1_A4.1_[A6G]_[T7C]_F4.1_[T8C]_[A9C]_T4.1 (ssRNA) RNA: UUUGACAACUGAUCGUUCUUUCUUGUAUGCCCUUCUUUCUCGAUCAGUUGUCUUU | = | 0.558
UCUCUUUGUAGUCGCUCUCUU (ssRNA) [Ic_S1_P4E.1_K4.1_C4.1_H4.1_A4.1_[T5G]_[A6T]_[T7C]_F4.1_[T8G]_[A9C]_T4.1] | > | 2.3
UCUCUUAUACACUAUAAUUCUCUU (ssRNA) [Id_ii_S1_P3E.4_K3.3_C3.2_[C-2A]_H3.3_A3.1_F3.1_T3.2_[T9A]_[A10T]] | = | 0.0435
Ic_S4_P4E.1_K4.1_C4.1_H4.1_A4.1_[T5G]_[A6T]_[T7C]_F4.1_[T8C]_T4.1 (ssRNA) RNA: UUUGACAACUGAUCGUUCUUUCUUGUAGUCCAUUCUUUCUCGAUCAGUUGUCUUU | = | 0.445
UCUCUUCUUUGUAUAUAUAUCUCUU (ssRNA) [Ie_S1_P3E.2_K3.1_C3.2_[+-2T]_H3.1_A3.1_F3.1_T3.2] | = | 0.00456
UCUCUUUGUUUUAUUGUCUCUU (ssRNA) [Ib_S1_P5E.1_K5.1_C5.1_H5.1_[A4T]_A5.1_F5.1_[A10G]_T5.1] | = | 0.378
UCUCUUUCUAUAUAUUAUUUCUCUU (ssRNA) [Id_ii_S1_P4E.3_K4.2_C4.2_[C-2T]_[T-1C]_H4.2_A4.1_F4.1_T4.2_[G10T]] | = | 0.0216
UCUCUUCGUGUAUUAUUAUCUCUCUU (ssRNA) [Id_ii_S1_P5E.2_K5.1_C5.2_[T-1G]_H5.1_A5.1_F5.1_T5.2_[A12C]] | = | 0.00738
UCUCUUUGUACGUGAUCUCUU (ssRNA) [Ic_S1_P4E.1_K4.1_C4.1_H4.1_A4.1_[T5C]_[A6G]_F4.1_[T8G]_T4.1] | = | 0.629
Id_iii_S2_P5E.8_K5.4_C5.3_[C-2G]_H5.1_A5.2_F5.1_T5.2 (ssRNA) RNA: UUUGAUUAAUAUGAUAUCGUUCUUUCUUGUUGUAAUAUUAUAUUCUUUCUCGAUAUCAUAUUAAUCUUU | = | 0.0154
Ia_S4_P4E.1_K4.1_C4.1_H4.1_[G2A]_A4.1_F4.1_T4.1 (ssRNA) RNA: UUUGACAACUGAUCGUUCUUUCUUAUAUAUUAUUCUUUCUCGAUCAGUUGUCUUU | = | 0.0103
Ic_S4_P3E.1_K3.1_C3.1_H3.1_A3.1_[T5C]_F3.1_[T7C]_[A8C]_T3.1 (ssRNA) RNA: UUUGACAACUGAUCGUUCUUUCUUGUACACCUUCUUUCUCGAUCAGUUGUCUUU | = | 0.0264
UCUCUUUGUAUAAAUUCUCUU (ssRNA) [Ic_S1_P4E.1_K4.1_C4.1_H4.1_A4.1_[T7A]_F4.1_[T8A]_[A9T]_T4.1] | = | 0.0672
UCUCUUCUUGUAUAUACUAUCUCUU (ssRNA) [Ie_S1_P3E.2_K3.1_C3.2_H3.1_A3.1_F3.1_[+8C]_T3.2] | = | 0.00883
Ic_S4_P4E.1_K4.1_C4.1_H4.1_A4.1_[A6T]_F4.1_[T8G]_[A9T]_T4.1 (ssRNA) RNA: UUUGACAACUGAUCGUUCUUUCUUGUAUUUGUUUCUUUCUCGAUCAGUUGUCUUU | = | 0.0461
UCUCUUUGUAUCUUAUUAUCUCUU (ssRNA) [Ie_S1_P4E.1_K4.1_C4.1_H4.1_[+4TCT]_A4.1_F4.1_T4.1] | = | 0.004
UCUCUUUGUAUCUCCGUCUCUU (ssRNA) [Ic_S1_P5E.1_K5.1_C5.1_H5.1_A5.1_[T6C]_[A7T]_F5.1_[T8C]_[T9C]_[A10G]_T5.1] | = | 0.484
UCUCUUCAUAUAUAUAUUUCUCUU (ssRNA) [Id_ii_S1_P3E.3_K3.2_C3.2_[T-1A]_H3.2_A3.1_F3.1_T3.2_[A10T]] | = | 0.515
